- Test system: MS2 coat protein
- test_method_notes: apparent KD of MS2 coat protein, switch OFF state (with FMN for OFF switches, without FMN for ON switches); designed switch direction (-1 OFF switch, 1 ON switch): -1; higher = weaker reporter binding
- study_conditions: FMN input: 0 or 200 uM; Eterna round: R93 (includes R88 designs)
Values of apparent KD of MS2 coat protein greater than or equal to 30 nM map to met; values below map to not met.

Solved entries (count: 5):
{"biosequence": "AAAAAUGGAGGAUAUACAUGAGGAUCACCCAUGUGUAACUAUACUAAGCACUCCUCACGUAGAAGGCCAAAAAA [Gilly Gone Silly 13 - Jieux - Exclusion 3]", "assay_system": "MS2 coat protein", "assigned_category": "met"}
{"biosequence": "AAAAAACAUGAGGAUCACCCAUGUGAGGAUAUCGAAAAGUCAAAGAAAAAGACGAAAACGAGAAGGCGCAAAAA [Inspired by Nando]", "assay_system": "MS2 coat protein", "assigned_category": "not met"}
{"biosequence": "GUGUACAGAGGAUAUAUAUAAGCAUGGAAACAUGCAAGAUCACAUGAGGAUCACCCAUGUAGAAGGCUGUACAC [Ex2: 737]", "assay_system": "MS2 coat protein", "assigned_category": "met"}
{"biosequence": "GGAAAACAUGAGGAUCACCCAUGUGAGGAUAUCGAUGUCCAAAAAAAAGUGCGGGACUCGAGAAGGCACUUGGA [salish99-ex1-31]", "assay_system": "MS2 coat protein", "assigned_category": "met"}
{"biosequence": "AGCUAGUCAGGAUAUACGAAAAUGUACGAAGCUGAGAAGGGACAUGAGGAUCACCCAUGUAGAAGGGACUAGCA [Diamond 35]", "assay_system": "MS2 coat protein", "assigned_category": "met"}

Could you now look at the following sequence, please?
Quick check, apparent KD of MS2 coat protein >= 30 nM? AACAAACAUGAGGAUCACCCAUGUCAGGAUAUGCAAAUAACAAACAACAAACAACAAAGCAGAAGGGACGACAA [Mat - Exclusion 1 - Eli mod - D51]
not met

###

- Test system: MS2 coat protein
- test_method_notes: apparent KD of MS2 coat protein; designed switch direction (-1 OFF switch, 1 ON switch): -1; higher = weaker reporter binding
- study_conditions: Eterna round: R95; input ligand: none
Overview of recorded apparent KD of MS2 coat protein for various sequences
Give just the number in µM; leave the unit off.

// solved cases for apparent KD of MS2 coat protein follow
{"biosequence": "GGUACUAACACGAAAGUGUUAGUACUAUAAGUUUGUGUUACAUGAGGAUCACCCAUGUCCUCAUAAGCUCGUCUUGU [JL-sv3-2.20 mat747 mod] (puzzle: Sensor v3, turn-off variant 2)", "output_unit": "µM", "measurement": 0.685}
{"biosequence": "GCCAGAGCAGGAUAUUCAAUAAUUCACAUGAGGAUCACCCAUGUCGAGCGAAAGCUCGAGGGAGAAGGGCUCUGGC [Fiskers Ex 5 - 6] (puzzle: Exclusion 5)", "output_unit": "µM", "measurement": 0.0394}

Note to self: apparent KD of MS2 coat protein recorded for CUAGAGCGAGGAUAUACAUGAGGAUCACCCAUGUGGCAGCCGGGUAGGAGUGACGUCGGUAGAAGGCGCACCCG [Anrate] (puzzle: Exclusion 3) was 0.0379

Note to self: apparent KD of MS2 coat protein recorded for AGGCGUGCUGAGGAUAUACUACCGGGUGCGAUAGUAGAAGGUAGCACAUGAGGAUCACCCAUGUGGUCAGAUGC [Qureaor] (puzzle: Exclusion 6) was 0.0236

Note to self: apparent KD of MS2 coat protein recorded for AGUAGAUCUACGCUUGCGUGGAUCUGCAAUGCAGGUGUUACAUGAGGAUCACCCAUGUCCUCAUUUGUUCGUCUUAG [JL turnoff v2 99.09] (puzzle: Sensor v3, turn-off variant 2) was 0.395

Note to self: apparent KD of MS2 coat protein recorded for GACCGGACGUGGUCAGGUAACAUGAGGAUCACCCAUGUAGGUCUAGGAACAAGCUUUUUGAAAGCUCGUCUUAUAAA [JR_SV3TOV1_Sub058] (puzzle: Sensor v3, turn-off variant 1) was 0.0693

Note to self: apparent KD of MS2 coat protein recorded for AGAAAGGAAGGAUAUACAAGAAAGCUGGGCAACGUCUCAUAACAUGAGGAUCACCCAUGUAGAAGGUCCAGGAA [Tiusredi] (puzzle: Exclusion 2) was 0.0193

Data origin: the supplement of paper PMC9170038
